systemUnderTest: TFR-PR^S17 precursor, p6pol/PR^S17 site (Human immunodeficiency virus type 1, UniProt P12497, E523D/G536V/I542V/L578M/M524I/M534L/N525D/V570S, form not given)
Format: biochemical, HIV-1
measurementSetup: inhibitor 50 μM, after 60 min, overall autoprocessing
endpointLabel: Inhibition of autoprocessing of TFR-PR^S17, initial screening

{"itemSmiles": "CC(C)(C)NC(=O)[C@@H]1C[C@@H]2CCCC[C@@H]2CN1C[C@@H](O)[C@H](Cc1ccccc1)NC(=O)[C@H](CC(N)=O)NC(=O)c1ccc2ccccc2n1", "recordedMeasurement": "almost no inhibition"}
{"itemSmiles": "CC(C)c1nc(CN(C)C(=O)N[C@H](C(=O)N[C@@H](Cc2ccccc2)C[C@H](O)[C@H](Cc2ccccc2)NC(=O)OCc2cncs2)C(C)C)cs1", "recordedMeasurement": "almost no inhibition"}
{"itemSmiles": "Cc1cccc(C)c1OCC(=O)N[C@@H](Cc1ccccc1)[C@@H](O)C[C@H](Cc1ccccc1)NC(=O)[C@H](C(C)C)N1CCCNC1=O", "recordedMeasurement": "almost no inhibition"}
